assay system: T1, FCoV nucleocapsid protein N (Feline alphacoronavirus (FCoV/FIPV) …, UniProt P25909 1-377)
T1 sequence: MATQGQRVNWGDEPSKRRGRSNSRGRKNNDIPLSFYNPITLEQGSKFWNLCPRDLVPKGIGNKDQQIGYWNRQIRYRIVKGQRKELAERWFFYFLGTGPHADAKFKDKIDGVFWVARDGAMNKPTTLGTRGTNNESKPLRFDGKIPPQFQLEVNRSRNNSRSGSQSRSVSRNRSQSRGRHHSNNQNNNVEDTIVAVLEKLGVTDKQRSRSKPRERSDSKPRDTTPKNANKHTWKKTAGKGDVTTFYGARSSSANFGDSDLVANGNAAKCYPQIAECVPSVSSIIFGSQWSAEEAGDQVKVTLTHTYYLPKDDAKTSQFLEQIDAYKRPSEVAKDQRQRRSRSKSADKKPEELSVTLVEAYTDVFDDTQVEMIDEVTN
protocol: filter binding; 80 mM NaCl; Filter binding: 40 mM Tris-HCl pH 7.4, 80 mM NaCl (160, 320 in series), 20 mM KCl, 1 mM DTT, room temperature, 30-45 min; BLI: 20 mM Tris-HCl pH 7.4, 80 mM NaCl, 20 mM KCl, 1 mM DTT, room temperature
assay context: protein: recombinant; tags: C-terminal His (pET-30a(+), NdeI/HindIII); chain copies: 2; label: [alpha-32P]GTP, internal
readout label: Kd

So what's the measured Kd for this one? ACUUUUAAAGUAAAGUGAGUGUAGCGUGGCUAUAAC (ssRNA) [vRNA 5' NCR (36 nt, radiolabeled)]
29 nM
